# test system: human 5-HT1A receptors (Homo sapiens, UniProt P08908)
# Sequence (P08908 1-422): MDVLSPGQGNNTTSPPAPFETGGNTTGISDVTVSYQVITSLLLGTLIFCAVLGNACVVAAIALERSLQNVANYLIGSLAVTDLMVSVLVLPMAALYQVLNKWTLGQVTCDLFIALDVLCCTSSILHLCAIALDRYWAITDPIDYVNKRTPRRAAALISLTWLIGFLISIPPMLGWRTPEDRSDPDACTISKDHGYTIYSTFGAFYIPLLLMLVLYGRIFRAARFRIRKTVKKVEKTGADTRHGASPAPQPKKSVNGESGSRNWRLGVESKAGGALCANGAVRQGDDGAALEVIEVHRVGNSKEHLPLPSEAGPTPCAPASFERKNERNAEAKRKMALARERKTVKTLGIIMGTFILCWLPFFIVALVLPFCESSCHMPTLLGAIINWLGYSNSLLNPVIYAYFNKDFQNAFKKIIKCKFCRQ
outcome measure: Ki (nM)
Quick note: give the figure in nM, leave out the unit.

Below, each entry is followed by its recorded Ki result.
C1=C(c2c[nH]c3ccccc23)CCN(CC2COc3ccc4ncncc4c3O2)C1 (centres unmarked) = 15
Fc1ccc2[nH]cc(C3=CCN(CC4COc5ccc6ncncc6c5O4)CC3)c2c1 (centres unmarked) = 51.5
CCc1ncc2c3c(ccc2n1)OCC(CN1CC=C(c2c[nH]c4ccccc24)CC1)O3 (centres unmarked) = 8.27
Cc1ncc2c3c(ccc2n1)OCC(CN1CC=C(c2c[nH]c4ccccc24)CC1)O3 (centres unmarked) = 2.4

Below: the item to evaluate.
**Query** For the molecule Cc1nc2ccc3c(c2c[n+]1[O-])OC(CN1CC=C(c2c[nH]c4ccccc24)CC1)CO3 (centres unmarked) , what Ki is on record?
**Result** 25.6

###

# test system: cloned human 5-HT1A receptors (Homo sapiens, UniProt P08908)
outcome measure: pIC50
# reply with the number alone; pIC50 is -log10 of concentration in mol/L

**Query** For the compound CCc1ncc2c3c(ccc2n1)OCC(CN1CC=C(c2c[nH]c4ccccc24)CC1)O3 (centres unmarked) , what pIC50 is on record?
**Result** 6.68

**Query** Repeat with Cc1ncc2c3c(ccc2n1)OCC(CN1CC=C(c2c[nH]c4ccccc24)CC1)O3 (centres unmarked)
**Result** 6.94

**Query** Repeat with Fc1ccc2[nH]cc(C3=CCN(CC4COc5ccc6ncncc6c5O4)CC3)c2c1 (centres unmarked)
**Result** 6.30

**Query** Repeat with Cc1nc2ccc3c(c2c[n+]1[O-])OC(CN1CC=C(c2c[nH]c4ccccc24)CC1)CO3 (centres unmarked)
**Result** 6.36

**Query** Repeat with C1=C(c2c[nH]c3ccccc23)CCN(CC2COc3ccc4ncncc4c3O2)C1 (centres unmarked)
**Result** 6.42

###

# test system: cloned human 5-HT1A receptors (Homo sapiens, UniProt P08908)
# Construct: expressed in transfected cells
# test protocol: 35S-GTPγS binding assay, 5-HT1A antagonist activity
# Type: biochemical
# applied conditions: reversal of the effects of standard agonist 8-OHDPAT on 35S-GTPγS binding; value in parentheses
outcome measure: 5-HT1A Function Imax (maximum inhibitory effect)

Below, each entry is followed by its recorded 5-HT1A Function Imax (maximum inhibitory effect) result.
Fc1ccc2[nH]cc(C3=CCN(CC4COc5ccc6ncncc6c5O4)CC3)c2c1 (centres unmarked) [Example 1] = (94.0)
Cc1ncc2c3c(ccc2n1)OCC(CN1CC=C(c2c[nH]c4ccccc24)CC1)O3 (centres unmarked) [Example 4] = (100)
Cc1nc2ccc3c(c2c[n+]1[O-])OC(CN1CC=C(c2c[nH]c4ccccc24)CC1)CO3 (centres unmarked) [Example 3] = (94.0)
CCc1ncc2c3c(ccc2n1)OCC(CN1CC=C(c2c[nH]c4ccccc24)CC1)O3 (centres unmarked) [Example 5] = (100)

Below: the item to evaluate.
**Query** For the molecule C1=C(c2c[nH]c3ccccc23)CCN(CC2COc3ccc4ncncc4c3O2)C1 (centres unmarked) [Example 2] , what 5-HT1A Function Imax (maximum inhibitory effect) is on record?
**Result** (100)

Reference source: patent US6656947B2
